Cited source for all entries: patent US4639433A

- System: Streptococcus faecium ATCC 9790
- CONDITION SET: agar dilution
Here the recorded MIC is given for each entry.
Response body: numeric value in µg/mL, unit text excluded.

// worked examples, MIC included
[[record]]
molecule = "CNC(CC(C)C)C(=O)NC1C(=O)NC(CC(N)=O)C(=O)NC2C(=O)NC3C(=O)NC(C(=O)NC(C(=O)O)c4cc(O)cc(O)c4-c4cc3ccc4O)C(O)c3ccc(c(Cl)c3)Oc3cc2cc(c3OC2OC(CO)C(O)C(O)C2OC2CC(C)(NC(=O)CCCCCBr)C(O)C(C)O2)Oc2ccc(cc2Cl)C1O (stereo not shown) [Compound 35, N^van --(6-bromo-n-hexyl)vancomycin]"
target_under_test = "Streptococcus faecium ATCC 9790"
reported_result = 2

[[record]]
molecule = "CCC(CC)C(=O)NC1(C)CC(OC2C(Oc3c4cc5cc3Oc3ccc(cc3Cl)C(O)C3NC(=O)C(NC(=O)C5NC(=O)C(CC(N)=O)NC(=O)C(NC(=O)C(CC(C)C)NC)C(O)c5ccc(c(Cl)c5)O4)c4ccc(O)c(c4)-c4c(O)cc(O)cc4C(C(=O)O)NC3=O)OC(CO)C(O)C2O)OC(C)C1O (stereo not shown) [Compound 22]"
target_under_test = "Streptococcus faecium ATCC 9790"
reported_result = 2

[[record]]
molecule = "CCCCCCCC(=O)NC1(C)CC(OC2C(Oc3c4cc5cc3Oc3ccc(cc3Cl)C(O)C3NC(=O)C(NC(=O)C5NC(=O)C(CC(N)=O)NC(=O)C(NC(=O)C(CC(C)C)NC)C(O)c5ccc(c(Cl)c5)O4)c4ccc(O)c(c4)-c4c(O)cc(O)cc4C(C(=O)O)NC3=O)OC(CO)C(O)C2O)OC(C)C1O (stereo not shown) [Compound 3, N^van --(1-oxo-n-octyl)vancomycin]"
target_under_test = "Streptococcus faecium ATCC 9790"
reported_result = 2


Moving on to another molecule below.
C=CCCCCCCCCC(=O)N(C)C(CC(C)C)C(=O)NC1C(=O)NC(CC(N)=O)C(=O)NC2C(=O)NC3C(=O)NC(C(=O)NC(C(=O)O)c4cc(O)cc(O)c4-c4cc3ccc4O)C(O)c3ccc(c(Cl)c3)Oc3cc2cc(c3OC2OC(CO)C(O)C(O)C2OC2CC(C)(N)C(O)C(C)O2)Oc2ccc(cc2Cl)C1O (stereo not shown) [Compound 10, N^leu --(1-oxo-10-n-decenyl)vancomycin] yielded MIC of 2
